assayDetails: Biodistribution experiments in normal mice after i.v. injection
Format: in vivo
testContext: male, ddY, mouse, in vivo, iv, total radioactivity, Biodistribution of radioactivity, Large-intestine
Where a SMILES comes first, the peptide text is derived from it. [ ]: non-standard residue; d: D form. The star is where a group is joined. DOTA = O=C(O)CN1CCN(CC(=O)O)CCN(CC(=O)*)CCN(CC(=O)O)CC1

compound: O=C(O)CC[C@H](NC(=O)[C@H](CCC(=O)O)NC(=O)[C@H](CCC(=O)O)NC(=O)[C@H](CCC(=O)O)NC(=O)[C@H](CCC(=O)O)NC(=O)[C@H](CCC(=O)O)NC(=O)[C@H](CCC(=O)O)NC(=O)[C@H](CCC(=O)O)NC(=O)[C@H](CCC(=O)O)NC(=O)[C@H](CCC(=O)O)NC(=O)[C@H](CCC(=O)O)NC(=O)[C@H](CCC(=O)O)NC(=O)[C@H](CCC(=O)O)NC(=O)[C@H](CCC(=O)O)NC(=O)CN1CCN(CC(=O)O)CCN(CC(=O)O)CCN(CC(=O)O)CC1)C(=O)O [^67Ga-DOTA-(L-Glu)14, metal not drawn]
u: %ID
tissue uptake dose at 10 min: 0.37
--
compound: O=C(O)C[C@@H](NC(=O)[C@@H](CC(=O)O)NC(=O)CN1CCN(CC(=O)O)CCN(CC(=O)O)CCN(CC(=O)O)CC1)C(=O)O [^67Ga-DOTA-(D-Asp)2, metal not drawn] ({DOTA}-[dD]-[dD]-OH)
u: %ID
tissue uptake dose at 10 min: 0.37

From: paper PMC5656653
